Reference source: paper PMC12693419

Target: COX-1 (Homo sapiens)
Construct: purchased Merck and Sigma-Aldrich
Sequence (P23219 24-599): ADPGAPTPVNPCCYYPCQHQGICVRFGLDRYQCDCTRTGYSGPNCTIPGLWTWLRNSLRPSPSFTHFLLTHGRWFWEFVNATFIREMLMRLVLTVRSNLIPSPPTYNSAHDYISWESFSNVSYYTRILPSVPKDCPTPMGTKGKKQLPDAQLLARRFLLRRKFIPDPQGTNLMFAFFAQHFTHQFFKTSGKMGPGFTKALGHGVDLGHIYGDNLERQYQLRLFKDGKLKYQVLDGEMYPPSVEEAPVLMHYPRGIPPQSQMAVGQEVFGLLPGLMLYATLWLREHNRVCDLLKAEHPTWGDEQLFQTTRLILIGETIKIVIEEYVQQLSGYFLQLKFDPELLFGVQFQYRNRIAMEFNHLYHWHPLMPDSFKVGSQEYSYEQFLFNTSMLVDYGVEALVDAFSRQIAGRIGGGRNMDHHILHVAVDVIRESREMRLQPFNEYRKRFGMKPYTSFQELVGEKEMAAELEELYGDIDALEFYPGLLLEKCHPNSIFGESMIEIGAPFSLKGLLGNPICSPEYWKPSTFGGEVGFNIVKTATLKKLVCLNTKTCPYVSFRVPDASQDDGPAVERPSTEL
Test: In vitro inhibition of COX-1
Format: biochemical
Reported Metric: inhibition at 100 µM (%)

Solved entries (count: 2):
1. C/C(=N\O)c1ccc(NC(=O)COC(=O)/C(=C/c2cccs2)c2ccccc2)cc1	16.7
2. O=C(/C=C/c1cc2ccccc2s1)OCc1c(-c2ccccc2)no[n+]1[O-]	0

[A] O=C(OCc1c(-c2ccccc2)no[n+]1[O-])/C(=C/c1cccs1)c1ccccc1
[B] C/C(=N\O)c1ccc(NC(=O)COC(=O)/C=C/c2cccs2)cc1
Query string: Hi there! Just curious which has the higher inhibition at 100 µM between A and B . Provide the label of your selected option as the answer.
Result string: A

====

Experiment: In vitro determination of NO release with Griess reagent
Settings: 100 μM, L-cysteine, pH 7.4, 37 °C, 60 min
Reported Metric: %NO2^− Release mol/mol at 100 μΜ (%)
# number only, unit % dropped from output

Query string: Quick one: %NO2^− Release mol/mol at 100 μΜ of `O=C(C=Cc1ccccc1)OCCOc1no[n+]([O-])c1S(=O)(=O)c1ccccc1` ?
Result string: 11

Query string: Quick one: %NO2^− Release mol/mol at 100 μΜ of `C/C(=N\O)c1ccc(NC(=O)COC(=O)/C=C/c2ccco2)cc1` ?
Result string: 0.2

Query string: Quick one: %NO2^− Release mol/mol at 100 μΜ of `C/C(=N\O)c1ccc(NC(=O)COC(=O)/C=C/c2cccc3ccccc23)cc1` ?
Result string: 1.1

====

System: MCF-7 cells
Assay: MTT viability assay
Assay type: cell-based
Conditions: Homo sapiens, MCF7, 48 h
Reported Metric: EC50 (µM)

[P] C/C(=N\O)c1ccc(NC(=O)COC(=O)/C(=C/c2cccs2)c2ccccc2)cc1 [Compound 6i]
[Q] O=C(/C=C/c1cc2ccccc2s1)OCc1c(-c2ccccc2)no[n+]1[O-] [Compound 9e]
Query string: Would you kindly point out which of P and Q has the smaller EC50 figure? Provide the label of your selected option as the answer.
Result string: P
(P: 38.3 µM, Q: 58.5 µM)

====

Target: bovine serum albumin (Bos taurus, UniProt P02769)
Construct: bovine serum albumin solution (fraction V); purchased Merck and Sigma-Aldrich; host or cells: bovine serum (fraction V)
Sequence (P02769 25-607): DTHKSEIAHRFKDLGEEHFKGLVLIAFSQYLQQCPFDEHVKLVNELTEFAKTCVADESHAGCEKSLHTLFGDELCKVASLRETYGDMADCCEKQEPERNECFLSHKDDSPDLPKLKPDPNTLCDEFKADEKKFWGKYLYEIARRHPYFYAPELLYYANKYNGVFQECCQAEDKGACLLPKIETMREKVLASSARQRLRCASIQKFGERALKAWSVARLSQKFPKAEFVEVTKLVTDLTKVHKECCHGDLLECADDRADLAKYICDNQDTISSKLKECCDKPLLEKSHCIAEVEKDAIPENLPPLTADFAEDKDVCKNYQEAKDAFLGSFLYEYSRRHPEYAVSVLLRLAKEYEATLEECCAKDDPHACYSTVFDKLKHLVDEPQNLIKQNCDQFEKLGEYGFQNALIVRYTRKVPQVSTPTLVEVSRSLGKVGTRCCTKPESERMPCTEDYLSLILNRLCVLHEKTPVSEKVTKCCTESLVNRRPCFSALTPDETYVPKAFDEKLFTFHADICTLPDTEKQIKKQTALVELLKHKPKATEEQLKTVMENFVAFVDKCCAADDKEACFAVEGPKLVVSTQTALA
Assay: In vitro inhibition of albumin denaturation
Conditions: heat denaturation, 60 °C 10 min
Reported Metric: Albumin (inhibition of albumin denaturation)

Solved entries (count: 4):
1) O=C(OCc1c(-c2ccccc2)no[n+]1[O-])/C(=C/c1cccs1)c1ccccc1	no
2) O=C(/C=C/c1cccs1)OCc1c(-c2ccccc2)no[n+]1[O-]	no
3) C/C(=N\O)c1ccc(NC(=O)COC(=O)/C=C/c2cccs2)cc1	no
4) O=C(/C=C/c1cc2ccccc2o1)OCc1c(-c2ccccc2)no[n+]1[O-]	no

Query string: Quick one: Albumin (inhibition of albumin denaturation) of `C/C(=N\O)c1ccc(NC(=O)COC(=O)/C(=C/c2ccccc2)c2ccccc2)cc1` ?
Result string: no

Query string: Quick one: Albumin (inhibition of albumin denaturation) of `O=C(/C=C/c1ccco1)OCc1c(-c2ccccc2)no[n+]1[O-]` ?
Result string: no

Query string: Quick one: Albumin (inhibition of albumin denaturation) of `O=C(OCc1c(-c2ccccc2)no[n+]1[O-])/C(=C/c1cccc2ccccc12)c1ccccc1` ?
Result string: no

Query string: Quick one: Albumin (inhibition of albumin denaturation) of CC(=O)Oc1ccccc1C(=O)O [Acetylsalicylic acid, acetylsalicylic acid, reference compound] ?
Result string: 31%

Query string: Quick one: Albumin (inhibition of albumin denaturation) of `O=C(C=Cc1ccccc1)OCc1c(-c2ccccc2)no[n+]1[O-]` ?
Result string: no

Query string: Quick one: Albumin (inhibition of albumin denaturation) of `C/C(=N\O)c1ccc(NC(=O)COC(=O)/C=C/c2cccc3ccccc23)cc1` ?
Result string: no

====

Biological target: soybean lipoxygenase isoenzyme-1 (SLOX-1) (Glycine max)
Construct: purchased Merck and Sigma-Aldrich
Sequence (P08170 whole entry): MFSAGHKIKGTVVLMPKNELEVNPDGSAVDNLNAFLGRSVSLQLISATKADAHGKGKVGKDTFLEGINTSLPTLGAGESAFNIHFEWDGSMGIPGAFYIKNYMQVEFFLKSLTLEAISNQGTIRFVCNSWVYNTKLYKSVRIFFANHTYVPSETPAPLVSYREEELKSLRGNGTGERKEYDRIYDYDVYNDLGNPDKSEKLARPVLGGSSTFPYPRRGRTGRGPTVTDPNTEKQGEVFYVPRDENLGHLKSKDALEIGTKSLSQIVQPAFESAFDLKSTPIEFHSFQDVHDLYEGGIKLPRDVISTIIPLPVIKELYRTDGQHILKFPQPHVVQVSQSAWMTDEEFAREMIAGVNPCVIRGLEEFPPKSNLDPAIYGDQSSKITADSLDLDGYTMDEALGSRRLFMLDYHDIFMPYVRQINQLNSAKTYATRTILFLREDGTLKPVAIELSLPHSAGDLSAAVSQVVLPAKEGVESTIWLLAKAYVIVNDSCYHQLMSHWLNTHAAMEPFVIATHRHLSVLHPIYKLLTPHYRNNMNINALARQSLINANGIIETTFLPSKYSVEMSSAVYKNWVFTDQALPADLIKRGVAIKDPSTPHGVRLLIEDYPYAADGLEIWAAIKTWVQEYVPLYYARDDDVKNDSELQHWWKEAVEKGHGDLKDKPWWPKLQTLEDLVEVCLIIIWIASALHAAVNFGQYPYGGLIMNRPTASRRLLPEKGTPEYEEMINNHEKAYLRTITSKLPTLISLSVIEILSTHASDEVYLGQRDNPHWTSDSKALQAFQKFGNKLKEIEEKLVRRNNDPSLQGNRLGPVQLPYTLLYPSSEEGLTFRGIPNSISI
Assay: In vitro inhibition of soybean lipoxygenase
Type: biochemical
Settings: pH 9.0
Reported Metric: LOX Inh. IC50

1) O=C(C=Cc1cccc2ccccc12)OCc1c(-c2ccccc2)no[n+]1[O-]	no
2) CC(=O)c1ccc(NC(=O)COC(=O)/C=C/c2ccco2)cc1	no
3) O=C(/C=C/c1cccs1)OCc1c(-c2ccccc2)no[n+]1[O-]	no
4) C/C(=N\O)c1ccc(NC(=O)COC(=O)/C=C/c2cc3ccccc3s2)cc1	no
5) O=C(OCc1c(-c2ccccc2)no[n+]1[O-])/C(=C/c1cccs1)c1ccccc1	no

Query string: Provide value of LOX Inh. IC50 for this record tested with soybean lipoxygenase isoenzyme-1 (SLOX-1) (Glycine max): `CC(=O)c1ccc(NC(=O)COC(=O)C=Cc2ccccc2)cc1`
Result string: no

Query string: Provide value of LOX Inh. IC50 for this record tested with soybean lipoxygenase isoenzyme-1 (SLOX-1) (Glycine max): `CC(=O)c1ccc(NC(=O)COC(=O)/C=C/c2cccs2)cc1`
Result string: no

Query string: Provide value of LOX Inh. IC50 for this record tested with soybean lipoxygenase isoenzyme-1 (SLOX-1) (Glycine max): `CC(=O)c1ccc(NC(=O)COC(=O)/C(=C/c2ccccc2)c2ccccc2)cc1`
Result string: no

Query string: Provide value of LOX Inh. IC50 for this record tested with soybean lipoxygenase isoenzyme-1 (SLOX-1) (Glycine max): `CC(=O)c1ccc(NC(=O)COC(=O)/C(=C/c2cccs2)c2ccccc2)cc1`
Result string: no

Query string: Provide value of LOX Inh. IC50 for this record tested with soybean lipoxygenase isoenzyme-1 (SLOX-1) (Glycine max): `C/C(=N\O)c1ccc(NC(=O)COC(=O)/C=C/c2ccco2)cc1`
Result string: no

Query string: Provide value of LOX Inh. IC50 for this record tested with soybean lipoxygenase isoenzyme-1 (SLOX-1) (Glycine max): `CC(=O)c1ccc(NC(=O)COC(=O)/C=C/c2cc3ccccc3s2)cc1`
Result string: no

====

Tested on: MDA-MB-435 cells
Test: MTT viability assay
Assay type: cell-based
Details: Homo sapiens, 48 h
Reported Metric: pEC50
// returns pEC50 (minus log10 of molar concentration), number only

Query string: Quick one: pEC50 of `C/C(=N\O)c1ccc(NC(=O)COC(=O)/C(=C/c2cccs2)c2ccccc2)cc1` ?
Result string: 4.28

====

Target: ovine COX-2 (Ovis aries, UniProt P79208)
Sequence (P79208 17-603): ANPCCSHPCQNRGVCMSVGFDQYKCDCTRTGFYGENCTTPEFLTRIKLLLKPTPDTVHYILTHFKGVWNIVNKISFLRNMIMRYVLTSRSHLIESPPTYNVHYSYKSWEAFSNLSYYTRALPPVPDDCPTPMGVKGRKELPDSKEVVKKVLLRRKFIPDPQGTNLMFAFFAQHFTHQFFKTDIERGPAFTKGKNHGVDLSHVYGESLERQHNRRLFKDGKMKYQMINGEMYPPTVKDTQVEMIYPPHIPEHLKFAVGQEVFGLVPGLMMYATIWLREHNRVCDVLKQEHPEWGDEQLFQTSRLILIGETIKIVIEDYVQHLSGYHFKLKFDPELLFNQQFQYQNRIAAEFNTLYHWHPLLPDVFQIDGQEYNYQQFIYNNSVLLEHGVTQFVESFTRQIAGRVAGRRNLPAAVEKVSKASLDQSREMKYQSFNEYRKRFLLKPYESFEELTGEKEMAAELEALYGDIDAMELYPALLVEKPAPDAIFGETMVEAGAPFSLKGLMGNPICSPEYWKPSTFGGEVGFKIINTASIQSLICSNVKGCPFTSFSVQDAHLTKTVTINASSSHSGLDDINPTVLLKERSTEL
pIC50: −log10 of the molar value.
Reported Metric: pIC50

1) C/C(=N\O)c1ccc(NC(=O)COC(=O)/C(=C/c2cccs2)c2ccccc2)cc1 [Compound 6i]	4.10

[a] O=C(OCc1c(-c2ccccc2)no[n+]1[O-])/C(=C/c1cccs1)c1ccccc1 [Compound 9i]
[b] C/C(=N\O)c1ccc(NC(=O)COC(=O)/C=C/c2cccs2)cc1 [Compound 6c]
Query string: Would you kindly point out which of a and b has the smaller pIC50 figure? Provide the label of your selected option as the answer.
Result string: a
(a: 4.15, b: 4.46)

====

Experiment: In vitro determination of NO release with Griess reagent
Settings: 100 μM, L-cysteine, pH 7.4, 37 °C, 60 min
Quick reference for %NO2^− Release mol/mol at 100 μΜ among some molecules
# number only, unit % dropped from output

Solved entries (count: 6):
1. C/C(=N\O)c1ccc(NC(=O)COC(=O)/C=C/c2cc3ccccc3o2)cc1	0.3
2. O=C(C=Cc1ccccc1)OCc1c(-c2ccccc2)no[n+]1[O-]	20
3. O=C(OCc1c(-c2ccccc2)no[n+]1[O-])/C(=C/c1ccccc1)c1ccccc1	3
4. C/C(=N\O)c1ccc(NC(=O)COC(=O)/C=C/c2cc3ccccc3s2)cc1	1.1
5. O=C(C=Cc1cccc2ccccc12)OCc1c(-c2ccccc2)no[n+]1[O-]	1.2
6. O=C(/C=C/c1cccs1)OCc1c(-c2ccccc2)no[n+]1[O-]	1.2

Query string: Quick one: %NO2^− Release mol/mol at 100 μΜ of `C/C(=N\O)c1ccc(NC(=O)COC(=O)/C=C/c2cccs2)cc1` ?
Result string: 4

====

Assay: In vitro inhibition of linoleic acid lipid peroxidation (AAPH)
Details: 100 μM; anti-lipid peroxidation
Reported Metric: AAPH Inh. at 100 μΜ (%)
# number only, unit % dropped from output

Solved entries (count: 3):
1. CC(=O)c1ccc(NC(=O)COC(=O)C=Cc2ccccc2)cc1 [Compound 5a]	31.9
2. C/C(=N\O)c1ccc(NC(=O)COC(=O)/C(=C/c2cccc3ccccc23)c2ccccc2)cc1 [Compound 6h]	97.7
3. CC(=O)c1ccc(NC(=O)COC(=O)/C(=C/c2cccs2)c2ccccc2)cc1 [Compound 5i]	77

Query string: Quick one: AAPH Inh. at 100 μΜ of O=C(C=Cc1ccccc1)OCCOc1no[n+]([O-])c1S(=O)(=O)c1ccccc1 [Compound 11] ?
Result string: 90

Query string: Quick one: AAPH Inh. at 100 μΜ of C/C(=N\O)c1ccc(NC(=O)COC(=O)/C=C/c2ccco2)cc1 [Compound 6d] ?
Result string: 54

Query string: Quick one: AAPH Inh. at 100 μΜ of CC(=O)c1ccc(NC(=O)COC(=O)/C=C/c2cccs2)cc1 [Compound 5c] ?
Result string: 29

Query string: Quick one: AAPH Inh. at 100 μΜ of C/C(=N\O)c1ccc(NC(=O)COC(=O)/C(=C/c2ccccc2)c2ccccc2)cc1 [Compound 6g] ?
Result string: 89

Query string: Quick one: AAPH Inh. at 100 μΜ of CC(=O)c1ccc(NC(=O)COC(=O)/C(=C/c2ccccc2)c2ccccc2)cc1 [Compound 5g] ?
Result string: 94.7

Query string: Quick one: AAPH Inh. at 100 μΜ of O=C(O)/C=C/c1ccccc1 [Cinnamic acid] ?
Result string: 78

Query string: Quick one: AAPH Inh. at 100 μΜ of CC(=O)c1ccc(NC(=O)COC(=O)/C=C/c2cc3ccccc3o2)cc1 [Compound 5f] ?
Result string: 39

Query string: Quick one: AAPH Inh. at 100 μΜ of O=C(/C=C/c1cc2ccccc2s1)OCc1c(-c2ccccc2)no[n+]1[O-] [Compound 9e] ?
Result string: 67

Query string: Quick one: AAPH Inh. at 100 μΜ of O=C(OCc1c(-c2ccccc2)no[n+]1[O-])/C(=C/c1ccccc1)c1ccccc1 [Compound 9g] ?
Result string: 90

Query string: Quick one: AAPH Inh. at 100 μΜ of O=C(C=Cc1cccc2ccccc12)OCc1c(-c2ccccc2)no[n+]1[O-] [Compound 9b] ?
Result string: 84

Query string: Quick one: AAPH Inh. at 100 μΜ of C/C(=N\O)c1ccc(NC(=O)COC(=O)/C=C/c2cccc3ccccc23)cc1 [Compound 6b] ?
Result string: 94
